- Tested on: OVCAR-5 ovarian
- Assay summary: NCI-60 one-dose screen, 48 h (100 = growth as untreated, 0 = no growth, -100 = all killed)
- Study conditions: 10 µM unless noted
Compounds without any hit were thinned out: in the full panel of roughly 83,000, 20% have a hit.
Measured growth accompanies every entry in the list below.

Molecule: CCCCC(NC(=O)CN1C(=O)/C(=C/C(C)=C/c2ccccc2)SC1=S)C(=O)O (stereo not given)
growth (%): 101
//
Molecule: Nc1nc(N)c2c(n1)NC(c1ccc(Cl)cc1)CC(c1cccc(Nc3ccncc3)c1)=N2 (stereo not given)
growth (%): 90.4
//
Molecule: CC(=O)c1c(C)nc2ccccc2c1/C=C/c1cccc(C)c1
growth (%): 83.6
//
Molecule: O=[N+]([O-])c1cc(C(F)(F)F)ccc1Sc1ccc(C(F)(F)F)cc1[N+](=O)[O-]
growth (%): 132
//
Molecule: CN1CCN(Cc2ccc(NC(=O)c3nc4ccc5[nH]ncc5c4c4c3CCCC4)cc2C(F)(F)F)CC1
growth (%): 37.1

* * *

- System: RXF 393 renal
- Assay summary: NCI-60 one-dose screen, 48 h
- Study conditions: 10 µM unless noted
- Protocol: Cells are grown in 96 well plates and exposed to the test compound for 48 hours. Compounds are tested at a single concentration, which is 10^-5 M for most compounds. The reported endpoint is percent growth (GI% or GIPRCNT), where numbers from 0 - 100% represent growth inhibition, and numbers from -100% - 0 represent cell death. For example, a value of 40 represents 60% growth inhibition. A value of 0 means no net growth occurred over the course of the experiment. […]
This is part of a sample that, as a whole, favours compounds with a hit. Of some 83,000 tested, about 20% had one in any assay. Activity calls are given as the source filed them. The calls were made as follows: active = growth percent below 10; inactive = the rest.
Labels: active, inactive

Compound: CC(=O)c1nn(-c2ccccc2)/c(=N/N=Cc2cn(-c3ccccc3)nc2-c2cc3ccccc3oc2=O)s1
Assigned class: inactive
--
Compound: O=S(=O)(Nc1cc(Sc2cccc3cccnc23)c(O)c2ccccc12)c1ccc(F)cc1
Assigned class: active
--
Compound: C=C(CNCCc1ccc(O)cc1)[C@@H]1CC[C@]2(CO)CC[C@]3(C)[C@H](CC[C@@H]4[C@@]5(C)CCC(NCCc6ccc(O)cc6)C(C)(C)[C@@H]5CC[C@]43C)[C@@H]12 (some centres undefined)
Assigned class: active
--
Compound: Cc1ccc(Cl)cc1N1CCN(C(=O)[C@@H]2C[C@@H]2c2ccc(F)cc2)CC1
Assigned class: inactive
--
Compound: CN1C(=O)/C(=C/c2ccc(C(=O)Nc3ncc(Cc4ccccc4Cl)s3)cc2)SC1=S
Assigned class: inactive
--
Compound: COc1ccc(/C=C2/C(=O)N=C3N2NC(c2ccccc2)=CN3c2ccccc2)cc1
Assigned class: inactive
--
Compound: Nn1c(-c2ccc(Cl)cc2)nc2c(-c3ccc(Cl)cc3)nc3ccc(Cl)cc3c2c1=O
Assigned class: active
--
Compound: COc1ccc(C/C(C)=C(/c2ccc(OCCN3CCCC3)cc2)c2ccc(OC(=O)NCc3ccccc3)cc2)cc1
Assigned class: inactive
--
Compound: COc1ccc(-c2ccccc2)cc1-c1c(Nc2cc(Cl)cc(Cl)c2O)c(=O)c1=O
Assigned class: active
--
Compound: Cc1ccc(-c2nc3nc(-c4ccccc4)nc(N4CCCNCC4)c3o2)cc1
Assigned class: active
--
Compound: CC/C=C\C/C=C\C[C@H](O)C/C=C1/C(=O)C=C[C@@H]1C/C=C\CCCC(=O)OC
Assigned class: active
--
Compound: N=C(N)c1ccc(-c2ccc(-c3ccc(F)cc3)s2)nc1
Assigned class: inactive
--
Compound: COC(=O)c1nc(-c2ccc(C)cc2)oc1Sc1ccc(C)cc1
Assigned class: inactive
--
Compound: CCN(CC)CCOc1ccccc1C
Assigned class: inactive
--
Compound: Cc1ccc(/C=C/c2c(C(=O)/C=C/c3ccccc3)c(C)nc3ccccc23)cc1
Assigned class: active
--
Compound: O=c1ccc2nc(-c3ccccn3)nn(-c3ccccc3)c-2c1
Assigned class: inactive
--
Compound: CC/C(=C(/c1ccc(Cl)cc1)c1ccc(OCCN2CCOCC2)cc1)c1ccccc1
Assigned class: inactive
--
Compound: Cc1ccc2[nH]c(=S)[nH]c(=O)c2c1
Assigned class: inactive
--
Compound: Nc1n[nH]c2cccc(C#Cc3cccc(NC(=O)c4ccc(N5CCOCC5)c(C(F)(F)F)c4)c3)c12
Assigned class: active
